details: 308.15 K; 101.33 kPa; Liquid; Vibrating tube method
PROPERTY_NAME: mass density (kg/m3)

> print(dat)
                                   compound  reading.unit  reported.measurement
1  CCCCn1cc[n+](CCCC)c1.[Br-] [1,3-dibutylimidazolium bromide]         kg/m3               1186.85
2  CCCCCC[n+]1ccn(CCCC)c1.[Br-] [1-butyl-3-hexyl-1H-imidazolium bromide]         kg/m3               1138.66
3  CCCCCCCCCCCC[n+]1ccn(CC)c1.[Br-] [3-dodecyl-1-ethyl-1H-imidazolium bromide]         kg/m3               1074.03
4  CCCCCCCC[n+]1ccn(CC)c1.[Br-] [1-ethyl-3-octyl-1H-imidazolium bromide]         kg/m3               1138.13
5  CCCCCCCC[n+]1ccn(CCCC)c1.[Br-] [1-butyl-3-octyl-1H-imidazolium bromide]         kg/m3               1112.79
6  CCCCCCCCCCCC[n+]1ccn(CCCC)c1.[Br-] [1-butyl-3-dodecyl-1H-imidazolium bromide]         kg/m3               1049.18
7  CCn1cc[n+](CC)c1.[Br-] [1,3-diethyl-1H-imidazolium bromide]         kg/m3               1343.75
8  CCCC[n+]1ccn(CC)c1.[Br-] [1-butyl-3-ethylimidazolium bromide]         kg/m3               1252.45
9  CCCCCC[n+]1ccn(CC)c1.[Br-] [1-ethyl-3-hexyl-1H-imidazolium bromide]         kg/m3               1186.58
